Data origin, for the record: patent US12447153B2

target: ErbB2 with Exon 20 YVMA insertion (HER2-YVMA) (Homo sapiens (Human), UniProt P04626, INS775YVMA); assay: Cellular Phosphorylation Assay, Assay 4 (constitutive ErbB2 phosphorylation, NIH 3T3 cells); format: cell-based; conditions: cellular ErbB2 YVMA phosphorylation
Sequence (P04626 other isoform, or with tags, fused parts or gaps ins YVMA behind 775): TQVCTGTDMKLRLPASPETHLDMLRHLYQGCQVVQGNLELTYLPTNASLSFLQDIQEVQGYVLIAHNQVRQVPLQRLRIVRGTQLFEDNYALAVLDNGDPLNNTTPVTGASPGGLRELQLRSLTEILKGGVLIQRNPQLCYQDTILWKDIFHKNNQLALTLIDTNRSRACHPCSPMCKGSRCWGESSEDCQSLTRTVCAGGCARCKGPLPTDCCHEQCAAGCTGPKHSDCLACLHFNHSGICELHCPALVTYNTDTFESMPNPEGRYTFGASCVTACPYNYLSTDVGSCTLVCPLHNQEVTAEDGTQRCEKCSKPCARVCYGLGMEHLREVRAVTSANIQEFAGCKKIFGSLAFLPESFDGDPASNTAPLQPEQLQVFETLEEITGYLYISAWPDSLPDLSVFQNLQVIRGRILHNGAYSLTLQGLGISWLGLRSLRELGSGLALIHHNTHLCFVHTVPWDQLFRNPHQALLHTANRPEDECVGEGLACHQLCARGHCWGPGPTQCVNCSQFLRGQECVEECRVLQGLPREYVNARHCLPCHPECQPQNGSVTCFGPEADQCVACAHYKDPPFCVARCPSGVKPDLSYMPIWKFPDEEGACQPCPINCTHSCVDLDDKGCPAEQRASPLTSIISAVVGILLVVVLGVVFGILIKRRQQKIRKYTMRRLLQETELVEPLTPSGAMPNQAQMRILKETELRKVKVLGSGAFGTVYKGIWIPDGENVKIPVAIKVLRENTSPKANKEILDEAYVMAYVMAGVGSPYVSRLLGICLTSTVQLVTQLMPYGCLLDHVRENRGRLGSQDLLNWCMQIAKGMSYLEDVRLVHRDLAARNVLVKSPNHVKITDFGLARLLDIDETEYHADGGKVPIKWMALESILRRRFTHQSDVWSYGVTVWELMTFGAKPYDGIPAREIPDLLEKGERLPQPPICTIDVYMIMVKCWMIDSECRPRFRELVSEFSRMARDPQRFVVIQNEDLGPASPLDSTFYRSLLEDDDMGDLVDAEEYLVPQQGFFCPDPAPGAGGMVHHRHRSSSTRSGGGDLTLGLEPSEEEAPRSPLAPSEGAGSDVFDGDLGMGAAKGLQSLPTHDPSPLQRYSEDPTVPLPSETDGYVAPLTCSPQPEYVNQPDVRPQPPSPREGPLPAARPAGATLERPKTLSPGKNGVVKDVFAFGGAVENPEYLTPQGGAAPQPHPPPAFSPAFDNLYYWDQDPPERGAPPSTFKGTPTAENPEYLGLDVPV
Assign labels as follows, please: true for IC50 below 30 nM; false for IC50 equal to or exceeding 30 nM.

Known results for molecules:
C=CC(=O)N1CCN(c2ccc3ncnc(Nc4ccc(Oc5ccn6ncnc6c5)c(Cl)c4F)c3n2)C[C@H]1COC : true
C=CC(=O)N1C[C@H](c2ccc3ncnc(Nc4ccc(Oc5ccn6ncnc6c5)c(C)c4F)c3n2)C[C@@H]1C1CC1 (racemic) : true
C=CC(=O)N1CCN(c2ccc3ncnc(Nc4ccc(Oc5ccn6ncnc6c5)c(Cl)c4F)c3n2)C[C@@H]1C1CC1 : true

Now turn to the next molecule.
Please indicate whether the reported IC50 of C=CC(=O)N1CC(c2ccc3ncnc(Nc4ccc(Oc5ccn6ncnc6c5)c(C)c4F)c3n2)C1 is strictly below 30 nM.
true

====

target: EGFR (Homo sapiens (Human)); assay: ErbB Enzyme Assay (HTRF KinEASE-TK), Assay 3; format: biochemical; conditions: EGFR enzyme assay
Sequence (P00533 25-1210): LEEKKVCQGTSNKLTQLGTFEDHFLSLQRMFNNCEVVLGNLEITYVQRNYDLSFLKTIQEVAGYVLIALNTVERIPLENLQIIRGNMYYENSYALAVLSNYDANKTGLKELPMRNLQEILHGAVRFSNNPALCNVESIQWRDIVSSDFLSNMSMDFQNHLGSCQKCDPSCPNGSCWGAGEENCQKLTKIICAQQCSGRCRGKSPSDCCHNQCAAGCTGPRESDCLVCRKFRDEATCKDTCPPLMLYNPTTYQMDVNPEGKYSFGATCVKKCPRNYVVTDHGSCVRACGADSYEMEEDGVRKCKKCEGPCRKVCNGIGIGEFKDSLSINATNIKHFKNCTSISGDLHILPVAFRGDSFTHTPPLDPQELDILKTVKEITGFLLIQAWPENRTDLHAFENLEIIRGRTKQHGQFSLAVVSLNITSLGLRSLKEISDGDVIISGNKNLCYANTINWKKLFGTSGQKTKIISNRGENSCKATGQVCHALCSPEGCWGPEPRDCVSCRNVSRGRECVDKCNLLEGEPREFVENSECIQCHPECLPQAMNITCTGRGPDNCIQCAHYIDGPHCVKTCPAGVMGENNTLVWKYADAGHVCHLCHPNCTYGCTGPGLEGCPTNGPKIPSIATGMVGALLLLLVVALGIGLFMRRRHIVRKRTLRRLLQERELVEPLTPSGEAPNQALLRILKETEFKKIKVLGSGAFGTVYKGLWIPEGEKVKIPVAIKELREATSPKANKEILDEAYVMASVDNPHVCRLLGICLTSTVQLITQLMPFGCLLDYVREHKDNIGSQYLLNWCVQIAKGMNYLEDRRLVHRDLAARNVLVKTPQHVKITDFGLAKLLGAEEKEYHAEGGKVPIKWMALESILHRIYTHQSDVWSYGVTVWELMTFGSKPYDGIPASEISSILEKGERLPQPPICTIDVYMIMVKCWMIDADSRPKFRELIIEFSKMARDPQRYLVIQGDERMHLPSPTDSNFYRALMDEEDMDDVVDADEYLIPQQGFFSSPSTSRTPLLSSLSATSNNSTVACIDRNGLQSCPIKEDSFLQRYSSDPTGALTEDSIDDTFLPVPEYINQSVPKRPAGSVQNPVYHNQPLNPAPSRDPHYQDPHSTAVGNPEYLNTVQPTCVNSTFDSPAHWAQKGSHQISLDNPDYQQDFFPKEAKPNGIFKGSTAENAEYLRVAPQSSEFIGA
pIC50: −log10 of the molar value.
Tag: Yes if measured pIC50 is not below 6, No if it is.

Exam item: decide whether the reported pIC50 for C=CC(=O)N1CCN(c2ccc3ncnc(Nc4ccc(Oc5ccc6c(c5)ncn6C)c(C)c4F)c3n2)CC12CC2 [Example 339] is at least 6.
No

Further, for C=CC(=O)N1CCN(c2ccc3ncnc(Nc4ccc(Oc5cnc6c(c5)ncn6C)c(C)c4F)c3n2)CC12CC2 [Example 450] ?
Yes

Further, for C=CC(=O)N1CCN(c2ccc3ncnc(Nc4ccc(Oc5ccn6ncnc6c5)c(C)c4F)c3n2)C[C@H]1CC [Example 274] ?
No

Further, for C=CC(=O)N1CCN(c2ccc3ncnc(Nc4cnc(Oc5ccn6ncnc6c5)c(C)c4)c3n2)CC1(C)C [Example 449] ?
No

Further, for C=CC(=O)N1CCN(c2ccc3ncnc(Nc4ccc(Oc5ccc6c(c5)ncn6C)c(C)c4F)c3n2)C[C@H]1C(C)C [Example 253] ?
No

====

target: MDR1 (P-gp) (Homo sapiens (Human), UniProt P08183); test: in vitro; conditions: pig, LLC-PK1
Sequence (P08183 whole entry): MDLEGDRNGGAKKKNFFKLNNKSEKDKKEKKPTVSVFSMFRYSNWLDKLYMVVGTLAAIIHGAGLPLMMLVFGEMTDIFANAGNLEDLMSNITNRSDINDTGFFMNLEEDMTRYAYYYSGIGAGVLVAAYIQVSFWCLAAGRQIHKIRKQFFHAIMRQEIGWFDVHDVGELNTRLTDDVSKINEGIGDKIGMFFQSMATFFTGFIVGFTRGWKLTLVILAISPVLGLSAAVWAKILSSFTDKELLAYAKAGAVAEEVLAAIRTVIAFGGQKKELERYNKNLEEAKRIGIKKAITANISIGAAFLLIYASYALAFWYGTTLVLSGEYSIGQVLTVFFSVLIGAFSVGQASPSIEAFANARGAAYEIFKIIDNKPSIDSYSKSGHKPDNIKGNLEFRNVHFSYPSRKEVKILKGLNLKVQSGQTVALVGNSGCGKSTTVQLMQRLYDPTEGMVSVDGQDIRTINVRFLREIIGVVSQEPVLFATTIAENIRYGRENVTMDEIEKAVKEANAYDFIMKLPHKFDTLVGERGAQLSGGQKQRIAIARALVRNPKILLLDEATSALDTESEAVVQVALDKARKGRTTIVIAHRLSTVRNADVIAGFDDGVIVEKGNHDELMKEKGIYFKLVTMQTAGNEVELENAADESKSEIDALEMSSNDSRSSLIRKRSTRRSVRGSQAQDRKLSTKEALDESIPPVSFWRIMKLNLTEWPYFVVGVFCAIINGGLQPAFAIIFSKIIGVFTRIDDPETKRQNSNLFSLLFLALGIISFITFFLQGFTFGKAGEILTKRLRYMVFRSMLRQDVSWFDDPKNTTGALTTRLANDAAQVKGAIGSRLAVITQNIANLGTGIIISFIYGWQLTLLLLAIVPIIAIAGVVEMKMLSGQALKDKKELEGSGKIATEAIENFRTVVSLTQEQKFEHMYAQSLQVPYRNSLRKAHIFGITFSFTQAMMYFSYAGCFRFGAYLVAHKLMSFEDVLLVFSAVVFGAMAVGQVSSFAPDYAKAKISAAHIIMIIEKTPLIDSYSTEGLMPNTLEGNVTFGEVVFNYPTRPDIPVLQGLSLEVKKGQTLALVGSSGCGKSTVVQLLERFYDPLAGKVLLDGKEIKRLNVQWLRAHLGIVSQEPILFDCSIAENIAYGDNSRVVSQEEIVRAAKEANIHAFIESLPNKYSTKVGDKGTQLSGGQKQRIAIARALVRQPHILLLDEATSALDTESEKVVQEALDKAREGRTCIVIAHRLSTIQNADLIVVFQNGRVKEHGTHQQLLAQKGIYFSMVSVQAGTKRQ
Assign labels as follows, please: MET for efflux ratio at 2 h, 1 µM below 1; NOT MET for efflux ratio at 2 h, 1 µM equal to or exceeding 1.

C=CC(=O)N1CCN(c2ccc3ncnc(Nc4ccc(Oc5cnc6c(c5)ncn6C)c(C)c4F)c3n2)CC1(C)C [Example 247] : MET
C=CC(=O)N1CCCN(c2ccc3ncnc(Nc4ccc(Oc5ccn6ncnc6c5)c(Cl)c4F)c3n2)CC1(C)C [Example 261] : NOT MET
C=CC(=O)N1CC[C@H]2CN(c3ccc4ncnc(Nc5ccc(Oc6ccn7ncnc7c6)c(Cl)c5F)c4n3)C[C@H]21 [Example 49] : NOT MET

Please indicate whether the reported efflux ratio at 2 h, 1 µM of C=CC(=O)N1CC2CC(C1)N2c1ccc2ncnc(Nc3cc(C)c(Oc4ccc5c(c4)ncn5C)cc3F)c2n1 [Example 334] is strictly below 1.
NOT MET

Further, for CC#CC(=O)N1CC2CCC(C1)N2c1ccc2ncnc(Nc3ccc(Oc4ccn5ncnc5c4)c(C)c3F)c2n1 [Example 246] ?
MET

Further, for C=CC(=O)N1CC[C@@H]2C[C@H]1CN2c1ccc2ncnc(Nc3ccc(Oc4ccn5ncnc5c4)c(C)c3F)c2n1 [Example 65] ?
NOT MET

Further, for C=CC(=O)N1[C@@H]2CC[C@H]1[C@H](c1ccc3ncnc(Nc4ccc(Oc5ccn6ncnc6c5)c(C)c4)c3n1)C2 (racemic) [Example 220] ?
NOT MET
